Molecular target: T1, EsCas13d, nuclease-dead (Eubacterium siraeum, UniProt B0MS50, R295A;H300A;R849A;H854A)
T1 sequence: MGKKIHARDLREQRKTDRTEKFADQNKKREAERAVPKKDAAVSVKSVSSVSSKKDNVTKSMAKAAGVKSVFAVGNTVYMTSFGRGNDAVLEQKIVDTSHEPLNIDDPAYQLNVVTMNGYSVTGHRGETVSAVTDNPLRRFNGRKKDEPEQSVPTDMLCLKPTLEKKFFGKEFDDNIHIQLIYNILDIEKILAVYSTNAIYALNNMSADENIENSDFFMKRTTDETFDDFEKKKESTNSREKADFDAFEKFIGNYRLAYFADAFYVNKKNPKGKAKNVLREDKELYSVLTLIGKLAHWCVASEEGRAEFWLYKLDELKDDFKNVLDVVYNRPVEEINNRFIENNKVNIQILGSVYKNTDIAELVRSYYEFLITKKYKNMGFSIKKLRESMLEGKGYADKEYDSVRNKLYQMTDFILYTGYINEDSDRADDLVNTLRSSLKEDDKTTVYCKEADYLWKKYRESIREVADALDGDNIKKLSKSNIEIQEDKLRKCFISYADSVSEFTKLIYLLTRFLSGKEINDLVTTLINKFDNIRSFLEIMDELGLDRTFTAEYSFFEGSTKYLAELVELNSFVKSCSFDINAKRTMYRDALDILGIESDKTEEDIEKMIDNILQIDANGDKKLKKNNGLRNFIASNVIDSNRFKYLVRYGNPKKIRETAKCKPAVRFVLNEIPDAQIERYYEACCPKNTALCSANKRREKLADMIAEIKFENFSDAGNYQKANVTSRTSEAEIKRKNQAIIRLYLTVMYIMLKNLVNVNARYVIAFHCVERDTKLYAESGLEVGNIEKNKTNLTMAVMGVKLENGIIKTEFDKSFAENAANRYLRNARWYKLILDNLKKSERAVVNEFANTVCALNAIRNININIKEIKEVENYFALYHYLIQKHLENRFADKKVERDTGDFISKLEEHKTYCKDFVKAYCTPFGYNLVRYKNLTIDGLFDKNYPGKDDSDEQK
Assay: crRNA (strand 1, pre-loaded); Mg2+; 40 mM Tris-HCl pH 7.5, 150 mM NaCl, 6 mM MgCl2, 1 mM DTT, 0.1% Tween-20, 0.2 mg/ml BSA; 25 C; 10 min per concentration, then washed
Conditions: tags: His6-TwinStrep-SUMO cleaved; N-terminal SNAP kept (SNAP-Surface 488); label: 3' end held by stalled T7 RNA polymerase
quantity-measured: pKd
pKd here is simply -log10 of the concentration when that concentration is written in mol/L.

[Q] Please report pKd for the following binder: target 1 insU 3' of 9,insG 3' of 9 (mixed) RNA 1: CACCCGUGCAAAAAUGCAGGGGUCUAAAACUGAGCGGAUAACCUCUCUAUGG RNA 2: GGGAAUGGAUCCACAUCUACGAAUUCGUACCAUAGAGAGGUUAUGUCCGCUCACCGAGAUCGGAAGAGCACACGU
[A] 7.88

[Q] Return pKd for the following binder: target 1 insG 3' of 8,insA 3' of 2 (mixed) RNA 1: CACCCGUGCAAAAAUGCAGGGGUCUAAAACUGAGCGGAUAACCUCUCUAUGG RNA 2: GGGAAUGGAUCCACAUCUACGAAUUCGUACCAUAGAGAGGUUAUGCCGCUCAACCGAGAUCGGAAGAGCACACGU
[A] 7.88

[Q] Indicate the recorded pKd value for this binder: target 2 MT 5'PFS UAG 3'PFS UGC (mixed) RNA 1: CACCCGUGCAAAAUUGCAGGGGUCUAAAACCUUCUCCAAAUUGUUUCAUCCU RNA 2: GGGAAUGGAUCCACAUCUACGAAUUCUAGAGGAUGAAACAAUUUGGAGAAGUGCAGAUCGGAAGAGCACACGU
[A] 8.56

[Q] Identify pKd associated with the binder target 2 MT 5'PFS GCA 3'PFS UAG (mixed) RNA 1: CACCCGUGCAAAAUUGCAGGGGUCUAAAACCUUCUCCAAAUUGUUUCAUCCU RNA 2: GGGAAUGGAUCCACAUCUACGAAUUCGCAAGGAUGAAACAAUUUGGAGAAGUAGAGAUCGGAAGAGCACACGU
[A] 7.91
